system: K-562 leukemia; assay: NCI tumour cell line growth inhibition, 48 h
Where a SMILES comes first, the peptide text is derived from it. [ ]: non-standard residue; d: D form. The star is where a group is joined. Boc = CC(C)(C)OC(=O)*; Lac = C[CH](O)C(=O)O; OBn = c1ccc(CO*)cc1
Give TGI for every item shown.

// below: answered compounds
COMPOUND: NC(=O)c1ccc(C(=O)Nc2ccc([As](=O)(O)O)cc2)cc1
TGI: > 100 µM

COMPOUND: CC(OC(=O)C(Cc1ccccc1)NC(=O)C(Cc1ccccc1)NC(=O)OC(C)(C)C)C(=O)OCc1ccccc1 (stereo not drawn) (Boc-Phe-Phe-[Lac]-OBn; configuration not given here)
TGI: > 100 µM

COMPOUND: CCCCS(=O)(=O)CCC(N)P(=O)(O)O (stereo unspecified)
TGI: > 100 µM

COMPOUND: C=Cc1nc2c(Cl)ncnc2n1Cc1ccccc1
TGI: > 40.1 µM

COMPOUND: COc1c2ccoc2c(/C=C/C=O)c2oc(-c3ccccc3)cc(=O)c12
TGI: > 100 µM

Now for the compound whose TGI we want.
Quick one: TGI for Cc1sc(Nc2ccc(Nc3nc(-c4ccccc4)c(C)s3)cc2)nc1-c1ccccc1 ? > 100 µM

* * *

system: LOX IMVI melanoma; assay: NCI tumour cell line growth inhibition, 48 h
PARAMETER: TGI

MOLECULE: O=C(O)CCC(NC(=O)c1ccc(OCc2nc3cc(C(F)(F)F)ccc3nc2-c2ccccc2)cc1)C(=O)O (stereo unspecified)
EXPERIMENTAL TARGET: LOX IMVI melanoma
TGI: > 100 µM

MOLECULE: Cc1cc(=O)[nH]c2cc3oc4ccccc4c3cc12
EXPERIMENTAL TARGET: LOX IMVI melanoma
TGI: > 100 µM

MOLECULE: COc1ccc(/C=c2/sc3n(c2=O)C(c2ccccc2)C2(O)CCCCC2N=3)cc1 (stereo unspecified)
EXPERIMENTAL TARGET: LOX IMVI melanoma
TGI: > 12.5 µM

Would you be so kind as to report TGI for each listed record?
1. CNC(=O)c1cc(Oc2ccc3nc(NC(=O)Nc4ccc(Cl)c(C(F)(F)F)c4)sc3c2)ccn1
2. COc1ccccc1NC(=O)CC(=O)n1nc(C)c(N=Nc2ccccc2C(=O)O)c1C
3. C1=CC2(C=CC13O[C@H](C1CCCCC1)[C@@H](C1CCCCC1)O3)O[C@H](C1CCCCC1)[C@@H](C1CCCCC1)O2
4. Cn1c(=O)c2c3ccccc3n(C)c2n(C)c1=O
5. CC(=O)N1[C@H](C(=O)O)CS[C@H]1c1ccncc1

1. > 100 µM
2. > 100 µM
3. > 50 µM
4. > 100 µM
5. > 100 µM

* * *

Give TGI for every item shown.
test system: LOX IMVI melanoma; assay: NCI tumour cell line growth inhibition, 48 h
Numbers only, in µM.

Would you be so kind as to report TGI for each listed record?
1. CC1=C(C(=O)Nc2ccc(F)c(Cl)c2)C(c2ccc(Cl)cc2)NC(=O)N1 (stereo not drawn)
2. COc1ccc(/C=C\c2cc(OC)c3c(c2)OCO3)c(O)c1O
3. CSc1ccc(/C=C2\CN(C)C/C(=C\c3ccc(SC)cc3)C2=O)cc1
4. NC1CCC(Nc2nc(NCc3ccc(-c4ccco4)nc3)c3ncn(C4CCCC4)c3n2)CC1 (stereo not drawn)
5. O=C(Nc1ccc(F)cc1F)c1cc(I)ccc1O
6. COc1cc(/C=C/c2cc(/C=C/c3ccc(O)c(OC)c3)n(C(=O)Nc3ccc(F)cc3)n2)ccc1O

[32, 16.6, 22.6, 21.9, 17.6, 4.26]
